molecular target: DNA topoisomerase 1 (Homo sapiens); experiment: Inhibition of human TOP1B expressed in Saccharomyces cerevisiae EKY3 lacking top1 assessed as reduction in yeast cell growth at 30 uM
Activity calls are given as the source filed them. The rule behind the calls is not given here.
Return exactly one item of active, inactive

Worked cases, answers included:
C[C@H]1[C@H](OCCc2ccc(O)cc2)O[C@@H]2O[C@]3(C)CC[C@H]4[C@H](C)CC[C@@H]1[C@@]24OO3	active
COc1cc(/C=C/C(=O)CC(=O)/C=C/c2ccc(OC(=O)CCC(=O)O[C@@H]3O[C@@H]4O[C@]5(C)CC[C@H]6[C@H](C)CC[C@@H]([C@H]3C)[C@@]46OO5)c(OC)c2)ccc1O	active
C[C@H]1[C@H](OC(=O)CCC(=O)O)O[C@@H]2O[C@@]3(C)CC[C@H]4[C@H](C)CC[C@@H]1[C@@]24OO3	inactive

Next item in the queue.
Answer briefly: the call reported for C[C@H]1[C@H](O)O[C@@H]2O[C@@]3(C)CC[C@H]4[C@H](C)CC[C@@H]1[C@@]24OO3 in this assay.
inactive

Origin of measurements: ChEMBL document CHEMBL4613320
